target: hENPP1 (Homo sapiens, UniProt P22413); experiment: Differential scanning fluorimetry (DSF) thermal shift of hENPP1; format: binding; conditions: DSF, compounds at 100 µM
Sequence (P22413 98-925): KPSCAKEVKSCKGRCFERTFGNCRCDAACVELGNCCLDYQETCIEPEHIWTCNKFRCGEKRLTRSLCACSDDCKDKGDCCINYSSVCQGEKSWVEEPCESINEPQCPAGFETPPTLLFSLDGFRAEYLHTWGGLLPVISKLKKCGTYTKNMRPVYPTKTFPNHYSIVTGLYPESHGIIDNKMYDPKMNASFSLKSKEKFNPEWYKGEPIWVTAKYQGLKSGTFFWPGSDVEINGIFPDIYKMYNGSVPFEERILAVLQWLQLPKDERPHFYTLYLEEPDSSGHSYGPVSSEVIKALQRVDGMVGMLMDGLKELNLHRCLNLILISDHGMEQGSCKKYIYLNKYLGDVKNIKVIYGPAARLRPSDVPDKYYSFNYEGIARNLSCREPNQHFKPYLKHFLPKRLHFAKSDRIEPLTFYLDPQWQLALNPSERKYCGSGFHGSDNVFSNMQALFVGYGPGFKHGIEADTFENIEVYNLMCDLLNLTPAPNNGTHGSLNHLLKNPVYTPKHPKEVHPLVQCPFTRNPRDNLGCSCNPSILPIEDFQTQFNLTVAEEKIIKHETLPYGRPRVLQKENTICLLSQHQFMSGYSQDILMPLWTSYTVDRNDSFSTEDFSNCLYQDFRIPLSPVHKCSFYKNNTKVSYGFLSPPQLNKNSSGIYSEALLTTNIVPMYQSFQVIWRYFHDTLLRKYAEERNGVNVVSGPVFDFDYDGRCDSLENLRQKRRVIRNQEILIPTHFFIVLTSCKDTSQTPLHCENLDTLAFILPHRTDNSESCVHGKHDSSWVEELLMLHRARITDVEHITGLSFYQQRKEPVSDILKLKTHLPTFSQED
What ΔT m was measured for each of the following?

For Cc1cn([C@H]2C[C@H](O)[C@@H](COP(=O)(O)O)O2)c(=O)[nH]c1=O [TMP] , what is its reported ΔT m? +1.2

How about Nc1ccn([C@@H]2O[C@H](COP(=O)(O)O)[C@@H](O)[C@H]2O)c(=O)n1 [CMP] ? +2.1

Now give it for COc1cc2ncnc(N3CCC(CNS(N)(=O)=O)CC3)c2cc1OC [QPS2] too. +4.5
